Would you mind telling me the reported TGI of each entry?
# Tested on: UACC-62 melanoma
# Measurement Notes: NCI tumour cell line growth inhibition, 48 h

CC(=O)Nc1ccc(C(=O)NN2C(=O)C(Cl)C2/C=C/c2ccccc2)cc1 (stereo not given) has a reported TGI of > 100 µM

CC(NC(=O)C1(N)CCCC1)C(=O)O (stereo not given) has a reported TGI of > 100 µM

COc1ccc(/C=C2/C(=O)C(c3ccccc3)N(c3ccccc3)C2=O)cc1OC (stereo not given) has a reported TGI of > 10 µM

`Nc1nc(N)c(N=Nc2ccc([As](=O)(O)O)c(O)c2)c(N)n1` has a reported TGI of > 100 µM

`C[C@H](OC(=O)/C=C/c1ccc(O)c(O)c1)[C@H](C)OC(=O)/C=C/c1ccc(O)c(O)c1` has a reported TGI of 12.6 µM

----------
# System: PC-3 prostate
# Measurement Notes: NCI tumour cell line growth inhibition, 48 h
Property Measured: TGI

`CCOC(=O)CCNC(=O)c1cc(C)cc2c1Oc1c(cc(C)cc1C(=O)NCCC(=O)OCC)S2` has a reported TGI of > 100 µM

`COc1cccc(-c2nn(C)c3sc(C(=O)NCCN4CCN(c5ccccc5F)CC4)cc23)c1` has a reported TGI of > 100 µM

`CCN(CC)C(=O)N1CN(c2ccccc2)C2(CCN(CCCC3(c4ccc(F)cc4)OCCO3)CC2)C1=O` has a reported TGI of 34.9 µM

`O=C1CN2CCN(CC2)CC(=O)Nc2ccc(cc2)S(=O)(=O)c2ccc(cc2)NC(=O)CN2CCN(CC2)CC(=O)Nc2ccc(cc2)S(=O)(=O)c2ccc(cc2)N1` has a reported TGI of > 100 µM

COC1=C2C[C@](OC)(C#CC=CC#CC2O)CC1(C)C (some centres undefined) has a reported TGI of > 100 µM

`c1ccc2c[n+](Cc3ccnc4ccccc34)ccc2c1` has a reported TGI of > 100 µM

Cc1cccc(C)c1NC(=O)/C(CC(=O)CC(c1ccccc1)c1c(O)c2ccccc2oc1=O)=N/O (centres undefined) has a reported TGI of > 100 µM

ClC1(Cl)C2CCOC21n1cnc2ccccc21 (centres undefined) has a reported TGI of > 100 µM

`CC1(C)CC(=O)C(/C=N/c2nc(-c3cccc([N+](=O)[O-])c3)cs2)=C(O)C1` has a reported TGI of > 100 µM

----------
# System: HT29 colon
# Measurement Notes: NCI tumour cell line growth inhibition, 48 h
Would you mind telling me the reported TGI of each entry?
Field format: number, assumed µM, no unit text.

`COc1ccc(-c2nn(C(=O)c3cc(OC)c(OC)c(OC)c3)c3cc(N)ccc23)cc1` has a reported TGI of 1.13

NC1=C(O)/C(=N/NS(=O)(=O)c2ccccc2)C(c2cccc(Cl)c2)O1 (configuration not stated) has a reported TGI of 55

`O=c1c(-c2nc3ccccc3[nH]2)cc2ccccc2n1Cc1cn(Cc2ccc(F)cc2)nn1` has a reported TGI of 96.9

FC1(F)SC2CCCCCCCCCCC2C1(F)F (configuration not stated) has a reported TGI of 96.5

`Nc1nc(-c2ccccc2Cl)cc(-c2ccc(Cl)cc2Cl)n1` has a reported TGI of 24.3

----------
# System: MCF7 breast
# Measurement Notes: NCI tumour cell line growth inhibition, 48 h
Property Measured: TGI

`N#C[C@H](c1nc2ccccc2[nH]1)c1nc2ccccc2nc1Cl` has a reported TGI of > 100 µM

`COC(=O)CCC(=O)c1ccc2c(c1)CC1(Cc3ccccc3C1)C2` has a reported TGI of > 100 µM

COc1ccc(-c2c3c(n(C4OC(COC(C)=O)C(OC(C)=O)C(OC(C)=O)C4OC(C)=O)c(=S)c2C#N)CCCC3)cc1 (centres undefined) has a reported TGI of > 100 µM

CCOC(=O)C(C(=O)OCC)C(=S)NC1OC(COC(C)=O)C(OC(C)=O)C(OC(C)=O)C1OC(C)=O (centres undefined) has a reported TGI of > 100 µM

`COc1ccc(-n2cc(-c3ccc(F)cc3)[nH]c2=O)cc1OC` has a reported TGI of > 100 µM

`FC(F)(F)c1ccc(N=NN2CCCC2)cc1` has a reported TGI of > 100 µM

`Cc1cc(NS(=O)(=O)c2ccc(N=Nc3c(Nc4ccccc4)nn(-c4ccc(S(=O)(=O)Nc5ccncn5)cc4)c3C)cc2)no1` has a reported TGI of > 100 µM

`CSc1cc(Cl)c(C)cc1S(=O)(=O)NC(=O)NNc1cnc2ccccc2n1` has a reported TGI of > 100 µM

`Nc1c(S(=O)(=O)O)cc2c(c1Cl)C(=O)c1ccccc1C2=O` has a reported TGI of > 100 µM

----------
# System: NCI/ADR-RES ovarian
# Measurement Notes: NCI tumour cell line growth inhibition, 48 h
Property Measured: TGI

NC(CSC(c1ccccc1)(c1ccccc1)c1ccc(Br)cc1)C(=O)O (stereo unspecified) has a reported TGI of 4.54 µM

`c1ccc2c[n+](Cc3ccnc4ccccc34)ccc2c1` has a reported TGI of > 100 µM

CC(NC(=O)C1(N)CCCC1)C(=O)O (stereo unspecified) has a reported TGI of > 100 µM

COc1ccc(-c2c(C#N)c(N)n(C3OC(COC(C)=O)C(OC(C)=O)C(OC(C)=O)C3OC(C)=O)c(=S)c2C#N)cc1 (stereo unspecified) has a reported TGI of > 100 µM

`O=[N+]([O-])C(=C(\Cl)NCCO)/C(Cl)=C(/Cl)Br` has a reported TGI of 7.42 µM

`c1ccc2c(CCNC3=NCCO3)cccc2c1` has a reported TGI of > 10 µM

O=P1(NCCCl)OCCC(OO)N1CCCl (stereo unspecified) has a reported TGI of > 100 µM

COc1ccccc1NC(=O)C(=O)C(C#N)CC(C)(C)C=O (stereo unspecified) has a reported TGI of > 100 µM

CC1(C)C/C=C\CCC(O)C(O)CCC(C)(C)C1=O (stereo unspecified) has a reported TGI of > 100 µM

`CCOc1ccnc2c(OC)c(C)c3nc4ccccc4nc3c12` has a reported TGI of > 100 µM

COc1ccccc1N1C(=O)/C(=C\c2ccccc2)SC1c1cc(OC)c(OC)c(OC)c1 (stereo unspecified) has a reported TGI of > 100 µM

`CN(Cc1cccc(Cl)c1)c1ccc(CO)c(Cl)c1` has a reported TGI of 44.1 µM

COc1ccc(C(CC(=O)c2ccc(O)cc2)C(C(=O)c2ccc(O)cc2)C(c2ccc(OC)cc2)C2C(=O)NC(=S)NC2=O)cc1 (stereo unspecified) has a reported TGI of > 100 µM

`O=C(/C=C/c1ccco1)c1cccc(Nc2nc(Nc3ccccc3)nc(Nc3ccccc3)n2)c1` has a reported TGI of > 100 µM

`COc1ccc2c(C(=O)NCCCCCC(=O)O)cc3cc4c(cc3c2c1)OCO4` has a reported TGI of > 100 µM

CCOC(=O)C1=CN(Cc2ccccc2)C2ON=C(c3ccc(Cl)cc3)C2C1 (stereo unspecified) has a reported TGI of > 72.3 µM

`O=C(O)COc1cccc2ccccc(=O)c12` has a reported TGI of > 100 µM

`CC(=O)Nc1ccc2cc3c(nc2n1)c1cccnc1n3S(=O)(=O)c1ccccc1` has a reported TGI of > 100 µM

`CC(C)(C)OC(=O)/C=C/[C@@H](CCC(=O)/C=C/[C@H](/C=C\CCCC(=O)O)NC1(c2ccccc2)c2ccccc2-c2ccccc21)O[Si](C)(C)C(C)(C)C` has a reported TGI of 32.6 µM

`Nc1nc(-c2ccccc2Cl)cc(-c2ccc(Cl)cc2Cl)n1` has a reported TGI of > 100 µM

`CCOC(=O)C(/C=N/C(N)=S)=C(/O)c1ccccc1` has a reported TGI of > 100 µM

----------
# Tested on: PC-3 prostate
# Measurement Notes: NCI tumour cell line growth inhibition, 48 h
Property Measured: TGI (µM)
Field format: number, assumed µM, no unit text.

`C[C@H](N)C(=O)Nc1ccc(-c2nc3ccccc3s2)cc1Cl` has a reported TGI of 27.3

`COc1ccc(C2=Nn3c(C)nnc3S/C2=C\c2ccc(-c3ccc([N+](=O)[O-])cc3)o2)cc1` has a reported TGI of 59.5

COc1ccc(-c2c3c(n(C4OC(COC(C)=O)C(OC(C)=O)C(OC(C)=O)C4OC(C)=O)c(=S)c2C#N)CCCC3)cc1 (stereo unspecified) has a reported TGI of 66.7

`COc1nc(C(Cl)(Cl)Cl)c(Cl)c(OC)c1Cl` has a reported TGI of 73.6

----------
# Tested on: EKVX NSCLC
# Measurement Notes: NCI tumour cell line growth inhibition, 48 h
Property Measured: TGI

`COc1ccc(Nc2cnc3cc(N)ccc3n2)cc1OC` has a reported TGI of > 100 µM

`CCc1cc(Cc2cc(CC)cc(C(C)(C)C)c2O)c(O)c(C(C)(C)C)c1` has a reported TGI of 6.77 µM

`CCOC(=O)C(/C=N/C(N)=S)=C(/O)c1ccccc1` has a reported TGI of > 100 µM

`Nc1[nH]nc2c1Cc1c(n(Cc3ccc(Cl)cc3)c3ccccc13)C(=O)N2` has a reported TGI of 59.2 µM

COc1ccc(/C=C2\CCC(CN(C)C)C2=O)cc1 (configuration not stated) has a reported TGI of 37.5 µM

Fc1cccc(C2SCc3nc4ccccc4n32)c1 (configuration not stated) has a reported TGI of > 100 µM

COC1=C2C[C@](OC)(C#CC=CC#CC2O)CC1(C)C (some centres not stated) has a reported TGI of > 100 µM

CSc1nc(NC2OC(CO)C(O)C(O)C2O)c(N)c(=O)[nH]1 (configuration not stated) has a reported TGI of > 100 µM

`O=C(Nc1ccc(-n2cc(-c3ccncc3)c(-c3ccc(Cl)c(O)c3)n2)cc1)c1ccc(Cl)c(C(F)(F)F)c1` has a reported TGI of > 25 µM

Nc1c2c(c(O)c3c1=C(CO)C=N3)=NCCS2=O (configuration not stated) has a reported TGI of 7.51 µM

`N#C[C@H](c1nc2ccccc2[nH]1)c1nc2ccccc2nc1Cl` has a reported TGI of 30 µM

FC1(F)SC2CCCCCCCCCCC2C1(F)F (configuration not stated) has a reported TGI of > 100 µM

COc1ccccc1NC(=O)C(=O)C(C#N)CC(C)(C)C=O (configuration not stated) has a reported TGI of > 100 µM

CCN(CC)C(=O)CCNC(C)Cc1c[nH]c2ccccc12 (configuration not stated) has a reported TGI of > 100 µM

`c1ccc2c[n+](Cc3ccnc4ccccc34)ccc2c1` has a reported TGI of > 100 µM

O=C1CSC2(CC(/C=C/c3ccccc3[N+](=O)[O-])=NN2c2cccc(S(=O)(=O)O)c2)N1c1nc2ccccc2s1 (configuration not stated) has a reported TGI of > 75 µM

`C/C(=N\O)c1ccc(Nc2cc(-c3ccccc3)nc3c(O)cccc23)cc1` has a reported TGI of > 100 µM

NC(CSC(c1ccccc1)(c1ccccc1)c1ccc(Br)cc1)C(=O)O (configuration not stated) has a reported TGI of > 100 µM

`NC(=O)NC(=O)c1cccc(C(=O)NC(N)=O)n1` has a reported TGI of > 100 µM

`CCN(CC)CCCNc1c2cc(OC)ccc2nc2cccc([N+](=O)[O-])c12` has a reported TGI of 0.446 µM

c1ccc2c(c1)-c1nc3ccccc3cc1C2N1CCOCC1 (configuration not stated) has a reported TGI of > 100 µM

`N=C(N)c1ccc(-c2ccc(-c3ccccc3)o2)o1` has a reported TGI of 9.37 µM

`O=c1cc(/C=C/c2ccccc2)c2ccc(O/C(=C\c3ccccc3)c3nc4ccccc4c(=O)o3)cc2o1` has a reported TGI of > 100 µM

Cc1cn(C2CC(/[N+]([O-])=N\Nc3ccc([N+](=O)[O-])cc3)C(CO)O2)c(=O)[nH]c1=O (configuration not stated) has a reported TGI of > 100 µM

`O=C(O)COc1cccc2ccccc(=O)c12` has a reported TGI of > 100 µM

`COc1cc2c(cc1OC)-c1c(c3ccc([N+](=O)[O-])cc3c(=O)n1CCCBr)C2=O` has a reported TGI of > 100 µM

OCC1C2C=CC(O2)[C@H]1CO (some centres not stated) has a reported TGI of > 100 µM

`Nc1c(S(=O)(=O)O)cc2c(c1Cl)C(=O)c1ccccc1C2=O` has a reported TGI of > 100 µM

`COC(=O)c1cccc(COc2ccc([N+](=O)[O-])cc2Cl)c1` has a reported TGI of > 100 µM

COc1ccc(-c2c3c(n(C4OC(COC(C)=O)C(OC(C)=O)C(OC(C)=O)C4OC(C)=O)c(=S)c2C#N)CCCC3)cc1 (configuration not stated) has a reported TGI of > 100 µM

`O=C(Nc1ccccn1)c1cc2c(cc1Cl)Sc1nccn1S2(=O)=O` has a reported TGI of 94.5 µM

`O=c1ccc2c(Cl)sc(Cl)c2[nH]1` has a reported TGI of > 100 µM

`O=c1[nH]nc(-c2ccccc2)c2[nH]c3c(c12)CCCc1ccccc1-3` has a reported TGI of > 100 µM

O=P1(NCCCl)OCCC(OO)N1CCCl (configuration not stated) has a reported TGI of > 100 µM

COC(=O)C(Cc1cc(OC)c(OC)c(OC)c1)(NC(=O)c1ccccc1)P(=O)(OC)OC (configuration not stated) has a reported TGI of > 100 µM

`CCOc1ccnc2c(OC)c(C)c3nc4ccccc4nc3c12` has a reported TGI of > 100 µM

CC1=NN(c2cccc(S(=O)(=O)O)c2)C2(C1)SCC(=O)N2c1nc2ccccc2s1 (configuration not stated) has a reported TGI of > 100 µM

`O=C(CCCN1CCC(Nc2ccc(F)cc2)(c2nnnn2C2CCCCC2)CC1)c1ccc(F)cc1` has a reported TGI of 35.4 µM

`COc1ccc(-c2nn(C(=O)c3cc(OC)c(OC)c(OC)c3)c3cc(N)ccc23)cc1` has a reported TGI of 51.3 µM

`C[C@H](OC(=O)/C=C/c1ccc(O)c(O)c1)[C@H](C)OC(=O)/C=C/c1ccc(O)c(O)c1` has a reported TGI of 33 µM

`C=C(C)[C@H]1C=C[C@@H](OC(C)=O)[C@@]2(COC(C)=O)[C@H](OC(=O)CCC)[C@H]3[C@@H](OC(C)=O)[C@@H](C)C[C@]3(O)C(=O)[C@@](C)(OC(C)=O)[C@H]12` has a reported TGI of > 100 µM

COC(=O)C1=C(C(=O)OC)C2CCC1CC2=O (configuration not stated) has a reported TGI of > 100 µM
